Measured values drawn from PubChem BioAssay (Tox21) for this set.

assay.method.text: qHTS assay for identifying genotoxic compounds that show differential cytotoxicity against isogenic chicken DT40 cell lines with known DNA damage response pathways - wild type cell line (AID 743012); further: nearly all actives have a fitted effect of over 60% in size
experimental.parameters: DT40 wild type chicken cells viability, CellTiter-Glo, 40 h; series mostly up to 68.4 µM
Records with an inconclusive call do not appear. The source made the active and inactive calls. The call rests on the fitted dose curve; in most records, active means well fitted cell-killing curve with a large enough effect in the repeat runs; inconclusive means weak or mixed curves, or effect the other way; inactive means no such curve, though single readings can be large or run the other way.
Hi there, use one of these labels in your reply, thanks! 1 = active, -1 = inactive

Would you please look over these solved cases?
>>> discrete_label("C#C[C@]1(O)CC[C@H]2[C@@H]3CCC4=C/C(=N/O)CC[C@@H]4[C@H]3CC[C@@]21CC")
1
>>> discrete_label("CCCc1ccc(C(=O)O)cc1")
-1
>>> discrete_label("NC[C@@H]1O[C@H](O[C@H]2[C@@H](O)[C@H](O[C@@H]3[C@@H](O)[C@H](N)C[C@H](N)[C@H]3O[C@H]3O[C@H](CO)[C@@H](O)[C@H](O)[C@H]3N)O[C@@H]2CO)[C@H](N)[C@@H](O)[C@@H]1O")
-1
>>> discrete_label("CCOC(=O)c1c[nH]c2cc(OCC(C)C)c(OCC(C)C)cc2c1=O")
-1
>>> discrete_label("NC[C@@H]1O[C@H](O[C@H]2[C@@H](O)[C@H](O[C@@H]3[C@@H](O)[C@H](N)C[C@H](N)[C@H]3O[C@H]3O[C@H](CN)[C@@H](O)[C@H](O)[C@H]3N)O[C@@H]2CO)[C@H](N)[C@@H](O)[C@@H]1O")
-1
>>> discrete_label("CC[C@@H](C(=O)O)[C@@H]1O[C@@H]([C@@H](C)[C@H](O)[C@H](C)C(=O)[C@H](CC)[C@H]2O[C@]3(C=C[C@@H](O)[C@]4(CC[C@@](C)([C@H]5CC[C@](O)(CC)[C@H](C)O5)O4)O3)[C@H](C)C[C@@H]2C)[C@@H](C)C[C@@H]1C")
1
>>> discrete_label("COc1ccccc1N1CCN(CCCC(=O)c2ccc(F)cc2)CC1")
1
>>> discrete_label("O=C(O)[C@@H](O)[C@H](O)[C@H](O)[C@@H](O)C(=O)O (tested in a mixture with another compound)")
-1
>>> discrete_label("CO[C@@H]1[C@@H](O[C@@H]2O[C@H](C)[C@@H](O[C@H]3C[C@@](C)(O)[C@@H](OC(=O)CC(C)C)[C@H](C)O3)[C@H](N(C)C)[C@H]2O)[C@@H](CC=O)C[C@@H](C)C(=O)/C=C/C2OC2C[C@@H](C)OC(=O)C[C@H]1OC(C)=O (some centres undefined)")
1
>>> discrete_label("C=C1CC[C@@H]2[C@](C)(CO)[C@H](O)CC[C@@]2(C)[C@@H]1C/C=C1/C(=O)OC[C@H]1O")
1

Tell me the recorded outcome of this test for `O=C1c2ccccc2C(=O)C1c1ccc(Cl)cc1` .
-1

Tell me the recorded outcome of this test for `CC(=O)O[C@H]1C[C@@]2(C)[C@@H](C[C@@H](O)[C@H]3[C@@]4(C)CC[C@@H](O)[C@@H](C)[C@@H]4CC[C@@]32C)/C1=C(\CCC=C(C)C)C(=O)O` .
-1

Tell me the recorded outcome of this test for `COC(=O)[C@@H](N)CS` .
-1

Tell me the recorded outcome of this test for CC(C)(C)C1(O)CCN2CC3c4ccccc4CCc4cccc(c43)C2C1 (centres undefined) .
1
